Molecular target: T1, hPRLR.mmh (soluble monomeric human PRLR) (Homo sapiens, UniProt P16471)
T1 construct: soluble monomeric (hPRLR.mmh); mmh (myc-myc-hexahistidine)
T1 sequence (P16471 with tags, fused parts or gaps): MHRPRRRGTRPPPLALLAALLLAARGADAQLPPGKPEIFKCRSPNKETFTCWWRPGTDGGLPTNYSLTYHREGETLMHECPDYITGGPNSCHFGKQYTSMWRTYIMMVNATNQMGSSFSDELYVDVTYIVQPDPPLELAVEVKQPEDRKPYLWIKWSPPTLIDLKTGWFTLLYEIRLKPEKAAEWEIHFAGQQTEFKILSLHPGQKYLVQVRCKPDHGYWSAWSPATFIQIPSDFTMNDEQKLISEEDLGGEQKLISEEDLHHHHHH
Assay: Surface plasmon resonance (Biacore T200), mAb-capture format
Type: binding
Conditions: 37° C., antibody-capture format, analyte hPRLR.mmh
MEASUREMENT_KIND: pKd
Give bare numbers, as −log10 of the molar value.

Query: For the molecule H1H6790P: anti-PRLR antibody, human IgG1 Fc; HCVR/LCVR SEQ ID NOs 114/122 (antibody, V domains shown, human IgG1 Fc) VH: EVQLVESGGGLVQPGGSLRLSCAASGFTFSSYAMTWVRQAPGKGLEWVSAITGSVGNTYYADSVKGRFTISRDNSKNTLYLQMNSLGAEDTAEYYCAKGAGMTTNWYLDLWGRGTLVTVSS VL: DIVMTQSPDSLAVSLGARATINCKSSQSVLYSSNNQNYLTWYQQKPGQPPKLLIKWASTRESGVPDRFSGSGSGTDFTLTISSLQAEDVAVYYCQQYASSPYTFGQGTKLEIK , what pKd is on record?
Response: 8.46
